Details: pH 2.3
Marks after values point to notes of the source that are not given here.
metric: Log P

Guide cases for Log P, answers given:
[[record]]
molecule = "CCOC(=O)C(C#N)=C(NC(C)C(C)C)c1ccc(Cl)nc1Cl (stereo not drawn)"
result = "3.85^[c]; 3.85^[b]"

[[record]]
molecule = "CCONC(=O)C(C#N)=C(NC(C)C(C)C)c1cccnc1Cl (stereo not drawn)"
result = "2.44^[c]; 2.44^[b]"

[[record]]
molecule = "CCOC(=O)C(C#N)=C(Nc1ccccc1SC)c1cccnc1OC"
result = "3.32^[c]; 3.32^[b]"


What measured Log P goes with CCOC(=O)C(C#N)=C(NC(C)C(C)C)c1cccnc1-c1cc(Cl)cc(Cl)c1 (stereo not drawn) ?
4.68

Also CCOC(=O)C(C#N)=C(NC(C)C(C)C)c1cccnc1-c1ccsc1 (stereo not drawn) , if possible.
3.55

Also `CCOC(=O)C(C#N)=C(NC1CC1)c1cccnc1Cl` , if possible.
2.5
